Here, each record is paired with measured Activity data.
test system: Hepa 1c1c7; test: Induction of quinone reductase activity in mouse Hepa 1c1c7 cells at 12.5 uM after 24 hrs relative to control; assay type: cell-based

Example compounds with recorded Activity:
compound | tested-system | Activity
COc1ccc(/C=C\c2ccc(OC)cc2)cc1 | Hepa 1c1c7 | 1.06
Oc1ccc(/C=C/c2cc(O)cc(O)c2)cc1 | Hepa 1c1c7 | 1.24
COc1ccccc1/C=C/c1ccccc1OC | Hepa 1c1c7 | 1.81
COc1ccc(/C=C/c2cccc(OC)c2)cc1 | Hepa 1c1c7 | 1.44
COc1ccc(/C=C/c2c(OC)cccc2OC)cc1 | Hepa 1c1c7 | 1.92
COc1ccc(/C=C/c2ccc(OC)cc2)cc1 | Hepa 1c1c7 | 1.14
COc1ccc(/C=C/c2ccc(OC)cc2OC)cc1 | Hepa 1c1c7 | 1.18
COc1ccc(/C=C/c2ccccc2O)cc1 [2-hydroxy-4'-methoxystilbene] | Hepa 1c1c7 | 1.13
COc1ccc(/C=C\c2cc(O)cc(O)c2)cc1 | Hepa 1c1c7 | 1.04
COc1ccc(/C=C/c2cccc(O)c2)cc1 | Hepa 1c1c7 | 1.08

Q: Activity lookup needed for Oc1cc(O)cc(/C=C/c2ccccc2)c1 , thanks.
Result: 1.07

Q: State the recorded Activity for this entry: COc1ccc(/C=C/c2ccccc2OC)cc1
Result: 2.04

Q: # get_value(readout='Activity', item= COc1ccc(/C=C/c2ccc(OC)c(O)c2)cc1 )
Result: 1.33

Q: Please look up its Activity: COc1ccc(/C=C/c2cc(O)cc(O)c2)cc1
Result: 1.14

* * *

assay: Cytotoxicity against mouse Hepa 1c1c7 cells assessed as cell viability at 12.5 uM after 24 hrs by MTT assay; format: functional; settings: Hepa-1c1c7, 24 h, read-out: Activity
property-name: viability at 12.5 µM (%)
Numeric answer only, unit % assumed.

See these solved cases before continuing.
compound | property-name | reported
COc1ccc(/C=C/c2ccccc2OC)cc1 | viability at 12.5 µM | 58
COc1ccc(/C=C/c2cccc(O)c2)cc1 | viability at 12.5 µM | 81
Oc1cc(O)cc(/C=C/c2ccccc2)c1 | viability at 12.5 µM | 61

Q: Please look up its viability at 12.5 µM: COc1ccc(/C=C\c2ccc(OC)cc2)cc1
Result: 64

Q: Which viability at 12.5 µM value belongs to COc1ccc(/C=C/c2ccccc2O)cc1 [2-hydroxy-4'-methoxystilbene] ?
Result: 80

Q: Any idea what viability at 12.5 µM was measured for COc1ccc(/C=C/c2cc(O)cc(O)c2)cc1 ?
Result: 87

Q: # get_value(readout='viability at 12.5 µM', item= COc1ccc(/C=C/c2c(OC)cccc2OC)cc1 )
Result: 90

Q: Request the reported viability at 12.5 µM associated with COc1ccccc1/C=C/c1ccccc1OC
Result: 82

Q: I have this compound here, COc1ccc(/C=C/c2cccc(OC)c2)cc1 , and I need its recorded viability at 12.5 µM.
Result: 90

Q: Consider the compound shown here: COc1ccc(/C=C/c2ccc(OC)cc2)cc1 What is its recorded viability at 12.5 µM?
Result: 67

Q: Can you share its viability at 12.5 µM? I mean this compound: COc1ccc(/C=C/c2ccc(OC)cc2OC)cc1
Result: 58

Q: Quick one: viability at 12.5 µM for Oc1ccc(/C=C/c2cc(O)cc(O)c2)cc1 ?
Result: 80

Q: Tell me the measured viability at 12.5 µM of COc1ccc(/C=C\c2cc(O)cc(O)c2)cc1 , please.
Result: 96

Q: I would be grateful if you could share the reported viability at 12.5 µM for COc1ccc(/C=C/c2ccc(OC)c(O)c2)cc1 .
Result: 77
